System: humanem Citrat-Plasma
Experiment: aPTT time prolongation in plasma (Biomatic B10 coagulometer)
Format: biochemical
Conditions: effective substance concentration, from a dose-response curve, at which the aPTT time is doubled versus control; human citrate plasma, 37°C
aPTT-Zeit (ED200 in µM) strictly under 0.2 µM means Y; at 0.2 µM or over means N.

[
  {
    "compound": "CN(CC(C)(C(=O)N1CCCC1)c1ccc2c(c1)nc(CNc1ccc(C(=N)N)cc1)n2C)C(=O)CC(=O)O (stereo not shown)",
    "assigned.label": "Y"
  },
  {
    "compound": "Cn1c(CNc2ccc(C(=N)N)cc2)nc2cc(C3(C(=NOCC(=O)O)c4ccccn4)CC3)ccc21 (mixture of isomers)",
    "assigned.label": "N"
  },
  {
    "compound": "Cl.Cn1c(CNc2ccc(C(=N)N)cc2)nc2cc(C3(C(=O)N4CCCC4CCC(=O)O)CC3)ccc21 (stereo not shown)",
    "assigned.label": "N"
  },
  {
    "compound": "Cc1nc(CCC(=O)O)n(Cc2ccc3c(c2)nc(CNc2ccc(C(=N)N)cc2)n3C)c1C.Cl",
    "assigned.label": "N"
  },
  {
    "compound": "Cl.Cn1c(CNc2ccc(C(=N)N)cc2)nc2cc(C(C)(NCCC(=O)O)C(=O)N3CCCC3)ccc21 (stereo not shown)",
    "assigned.label": "N"
  }
]

Consider the compound Cl.Cn1c(CNc2ccc(C(=N)N)cc2)nc2cc(C3(C(=O)N4CCCC4)CC3)ccc21 . Is its aPTT-Zeit (ED200 in µM) strictly less than 0.2 µM? Y
